Measured MIC accompanies every entry in the list below.
test system: Streptococcus pneumoniae; assay: Antibacterial activity against erythromycin-resistant Streptococcus pneumoniae AB11 expressing ermB and me/A genes by standard broth microdilution method; assay type: functional
READOUT_LABEL: MIC (µg/mL)

[
  {
    "GIVEN_SMILES": "CCCCc1ccc(-c2cn(CCCNC(=O)O[C@@H]3[C@@H](C)C(=O)[C@H](C)C[C@@](C)(OC)[C@H](O[C@H]4O[C@@H](C)C[C@@H](N(C)C)[C@@H]4O)[C@@H](C)C(=O)[C@@H](C)C(=O)O[C@H](CC)[C@@]3(C)O)nn2)cc1",
    "READOUT_LABEL": "MIC",
    "UNIT_ABBREV": "µg/mL",
    "OBSERVED_RESULT": 32
  },
  {
    "GIVEN_SMILES": "CC[C@H]1OC(=O)[C@H](C)C(=O)[C@H](C)[C@@H](O[C@H]2O[C@@H](C)C[C@@H](N(C)C)[C@@H]2O)[C@](C)(OC)C[C@@H](C)C(=O)[C@H](C)[C@@H](OC(=O)NCCn2cc(-c3ccc([N+](=O)[O-])cc3)nn2)[C@]1(C)O",
    "READOUT_LABEL": "MIC",
    "UNIT_ABBREV": "µg/mL",
    "OBSERVED_RESULT": 256
  },
  {
    "GIVEN_SMILES": "CC[C@H]1OC(=O)[C@H](C)C(=O)[C@H](C)[C@@H](O[C@H]2O[C@@H](C)C[C@@H](N(C)C)[C@@H]2O)[C@](C)(OC)C[C@@H](C)C(=O)[C@H](C)[C@@H](OC(=O)NCCn2cc(-c3cccc(C)c3)nn2)[C@]1(C)O",
    "READOUT_LABEL": "MIC",
    "UNIT_ABBREV": "µg/mL",
    "OBSERVED_RESULT": 256
  },
  {
    "GIVEN_SMILES": "CC[C@H]1OC(=O)[C@H](C)C(=O)[C@H](C)[C@@H](O[C@H]2O[C@@H](C)C[C@@H](N(C)C)[C@@H]2O)[C@](C)(OC)C[C@@H](C)C(=O)[C@H](C)[C@@H](OC(=O)NCCn2cc(-c3ccc(OC)cc3)nn2)[C@]1(C)O",
    "READOUT_LABEL": "MIC",
    "UNIT_ABBREV": "µg/mL",
    "OBSERVED_RESULT": 256
  },
  {
    "GIVEN_SMILES": "CC[C@H]1OC(=O)[C@H](C)C(=O)[C@H](C)[C@@H](O[C@H]2O[C@@H](C)C[C@@H](N(C)C)[C@@H]2O)[C@](C)(OC)C[C@@H](C)C(=O)[C@H](C)[C@@H](OC(=O)NCCCn2cc(-c3ccc(-c4ccccc4)cc3)nn2)[C@]1(C)O",
    "READOUT_LABEL": "MIC",
    "UNIT_ABBREV": "µg/mL",
    "OBSERVED_RESULT": 16
  },
  {
    "GIVEN_SMILES": "CCCCc1ccc(-c2cn(CCNC(=O)O[C@@H]3[C@@H](C)C(=O)[C@H](C)C[C@@](C)(OC)[C@H](O[C@H]4O[C@@H](C)C[C@@H](N(C)C)[C@@H]4O)[C@@H](C)C(=O)[C@@H](C)C(=O)O[C@H](CC)[C@@]3(C)O)nn2)cc1",
    "READOUT_LABEL": "MIC",
    "UNIT_ABBREV": "µg/mL",
    "OBSERVED_RESULT": 64
  },
  {
    "GIVEN_SMILES": "CC[C@H]1OC(=O)[C@H](C)C(=O)[C@H](C)[C@@H](O[C@H]2O[C@@H](C)C[C@@H](N(C)C)[C@@H]2O)[C@](C)(OC)C[C@@H](C)C(=O)[C@H](C)[C@@H](OC(=O)NCCn2cc(-c3cccc(N)c3)nn2)[C@]1(C)O",
    "READOUT_LABEL": "MIC",
    "UNIT_ABBREV": "µg/mL",
    "OBSERVED_RESULT": 256
  },
  {
    "GIVEN_SMILES": "CC[C@H]1OC(=O)[C@H](C)C(=O)[C@H](C)[C@@H](O[C@H]2O[C@@H](C)C[C@@H](N(C)C)[C@@H]2O)[C@](C)(OC)C[C@@H](C)C(=O)[C@H](C)[C@@H](OC(=O)NCCn2cc(-c3ccc(Cl)cc3)nn2)[C@]1(C)O",
    "READOUT_LABEL": "MIC",
    "UNIT_ABBREV": "µg/mL",
    "OBSERVED_RESULT": 128
  },
  {
    "GIVEN_SMILES": "CCc1ccc(-c2cn(CCNC(=O)O[C@@H]3[C@@H](C)C(=O)[C@H](C)C[C@@](C)(OC)[C@H](O[C@H]4O[C@@H](C)C[C@@H](N(C)C)[C@@H]4O)[C@@H](C)C(=O)[C@@H](C)C(=O)O[C@H](CC)[C@@]3(C)O)nn2)cc1",
    "READOUT_LABEL": "MIC",
    "UNIT_ABBREV": "µg/mL",
    "OBSERVED_RESULT": 256
  },
  {
    "GIVEN_SMILES": "CC[C@H]1OC(=O)[C@H](C)C(=O)[C@H](C)[C@@H](O[C@H]2O[C@@H](C)C[C@@H](N(C)C)[C@@H]2O)[C@](C)(OC)C[C@@H](C)C(=O)[C@H](C)[C@@H](OC(=O)NCCn2cc(-c3cccc([N+](=O)[O-])c3)nn2)[C@]1(C)O",
    "READOUT_LABEL": "MIC",
    "UNIT_ABBREV": "µg/mL",
    "OBSERVED_RESULT": 128
  },
  {
    "GIVEN_SMILES": "CC[C@H]1OC(=O)[C@H](C)C(=O)[C@H](C)[C@@H](O[C@H]2O[C@@H](C)C[C@@H](N(C)C)[C@@H]2O)[C@](C)(OC)C[C@@H](C)C(=O)[C@H](C)[C@@H](OC(=O)NCCCn2cc(-c3ccc(Cl)cc3)nn2)[C@]1(C)O",
    "READOUT_LABEL": "MIC",
    "UNIT_ABBREV": "µg/mL",
    "OBSERVED_RESULT": 16
  },
  {
    "GIVEN_SMILES": "CC[C@H]1OC(=O)[C@H](C)[C@@H](O[C@H]2C[C@@](C)(OC)[C@@H](O)[C@H](C)O2)[C@H](C)[C@@H](O[C@@H]2O[C@H](C)C[C@H](N(C)C)[C@H]2O)[C@](C)(OC)C[C@@H](C)C(=O)[C@H](C)[C@@H](O)[C@]1(C)O",
    "READOUT_LABEL": "MIC",
    "UNIT_ABBREV": "µg/mL",
    "OBSERVED_RESULT": 128
  },
  {
    "GIVEN_SMILES": "CC[C@H]1OC(=O)[C@H](C)C(=O)[C@H](C)[C@@H](O[C@H]2O[C@@H](C)C[C@@H](N(C)C)[C@@H]2O)[C@](C)(OC)C[C@@H](C)C(=O)[C@H](C)[C@@H](OC(=O)NCCn2cc(-c3ccc(F)cc3)nn2)[C@]1(C)O",
    "READOUT_LABEL": "MIC",
    "UNIT_ABBREV": "µg/mL",
    "OBSERVED_RESULT": 128
  },
  {
    "GIVEN_SMILES": "CC[C@H]1OC(=O)[C@H](C)C(=O)[C@H](C)[C@@H](O[C@H]2O[C@@H](C)C[C@@H](N(C)C)[C@@H]2O)[C@](C)(OC)C[C@@H](C)C(=O)[C@H](C)[C@@H](OC(=O)NCCn2cc(-c3ccccc3)nn2)[C@]1(C)O",
    "READOUT_LABEL": "MIC",
    "UNIT_ABBREV": "µg/mL",
    "OBSERVED_RESULT": 256
  }
]
